assay: Turbidity, derived count rate of scattered light
Assay type: physicochemical
condition: Log10 of derived count rate of scattered light (turbidity)
Rule: Log10 Count Rate of 3 or more gives yes; anything lower gives no.

In: Answer whether Log10 Count Rate of CKFKFQF is greater than or equal to 3.
Out: yes

In: Consider next the substance KIKIQIN in the same way.
Out: no

In: Consider next the substance KLKLKLQL in the same way.
Out: no

In: Consider next the substance RGDKIKIQI in the same way.
Out: no

In: Consider next the substance KLKQLL in the same way.
Out: no

In: Consider next the substance RGDKIRGDKI in the same way.
Out: no

In: Consider next the substance KFKFQF in the same way.
Out: no

In: Consider next the substance CQFQFQF in the same way.
Out: yes

In: Consider next the substance QCKAKAQANM in the same way.
Out: no

In: Consider next the substance KAKAKAQA in the same way.
Out: no

In: Consider next the substance CKWKWQW in the same way.
Out: yes

In: Consider next the substance KFKFQFNMWQ in the same way.
Out: no

In: Consider next the substance KIKIKIQINMWQ in the same way.
Out: yes

In: Consider next the substance CKIKQII in the same way.
Out: no

In: Consider next the substance QCKIKQII in the same way.
Out: no

In: Consider next the substance KFKQFFNMWQ in the same way.
Out: no

In: Consider next the substance HIHIQIC in the same way.
Out: no

In: Consider next the substance QCKIKIQINM in the same way.
Out: yes

In: Consider next the substance RGEKIKIQINM in the same way.
Out: no

----------
assay: Turbidity, derived count rate of scattered light
Assay type: physicochemical
condition: derived count rate of scattered light; mean, std deviation in next column
experimental.readout: Zeta Count Rate / kcps (kcps)
Report the value in kcps with no unit label.

In: Please give the measured Zeta Count Rate / kcps for this substance: KFKQFFNMWQ [JG5]
Out: 236.9

In: Consider next the substance KIKIQINMW [JGB1 /TM85] in the same way.
Out: 239.6

In: Consider next the substance CSISIQINM [TM145] in the same way.
Out: 3291

In: Consider next the substance CKFKQFFNM [CK14] in the same way.
Out: 27264.3

In: Consider next the substance KFKFQFW [TM71] in the same way.
Out: 121.9

In: Consider next the substance KLKQLL [KM27 / psis14] in the same way.
Out: 319.9

In: Consider next the substance CKAKAQANM [BL9] in the same way.
Out: 207.3

In: Consider next the substance MKIKIQINM [TM41] in the same way.
Out: 981.3

In: Consider next the substance KAKAQA [JJA2 / TM153] in the same way.
Out: 20.93

In: Consider next the substance CKIKIQI [MG3b] in the same way.
Out: 2432.9

In: Consider next the substance CKFKFQFNM [BL3] in the same way.
Out: 2224

In: Consider next the substance CKIKIQINMW [TM86] in the same way.
Out: 4915

In: Consider next the substance QCKFKQFF [CK12] in the same way.
Out: 225.4

In: Consider next the substance RGDKIKIQINMWQ [MG9a] in the same way.
Out: 1554

In: Consider next the substance KIKIQINM [JGB2] in the same way.
Out: 262.1

In: Consider next the substance CKIKQII [MG4a] in the same way.
Out: 74.6

In: Consider next the substance CKFKFQF [BL4] in the same way.
Out: 5303
